Reported values of pIC50 for individual entries
testedSystem: human renin (Homo sapiens, UniProt P00797)
Sequence (P00797 67-406): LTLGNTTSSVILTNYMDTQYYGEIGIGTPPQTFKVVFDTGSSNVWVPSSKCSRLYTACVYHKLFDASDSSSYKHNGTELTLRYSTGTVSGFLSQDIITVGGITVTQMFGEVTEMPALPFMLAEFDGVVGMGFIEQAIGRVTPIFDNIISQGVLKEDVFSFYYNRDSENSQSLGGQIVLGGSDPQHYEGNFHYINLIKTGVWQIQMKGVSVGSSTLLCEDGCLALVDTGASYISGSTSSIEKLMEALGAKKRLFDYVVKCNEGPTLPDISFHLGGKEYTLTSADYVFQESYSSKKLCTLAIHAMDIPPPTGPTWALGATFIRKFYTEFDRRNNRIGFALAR
methodNotes: In vitro human renin inhibition (renin activity in human plasma, angiotensin I radioimmunoassay)
measurementContext: human plasma from healthy volunteers; angiotensin I difference between 37° and 4° for 2 h; linear regression of at least three concentrations; read-out: IC₅₀
Convention used: pIC50 is expressed as -log10 of the molar concentration.

Some molecules with recorded pIC50:
CC(C)CNC(=O)C[C@H](O)[C@H](CC1CCCCC1)NC(=O)[C@H](CC(C)C)NC(=O)[C@H](Cc1ccccc1)NC(=O)CC1COc2ccc(S(=O)(=O)CC(=O)OC(C)(C)C)cc21 (stereo partly drawn) [Example E43, hemihydrate]: 8.10
CC(C)CNC(=O)C[C@H](O)[C@H](CC1CCCCC1)NC(=O)[C@H](CC(C)C)NC(=O)[C@H](Cc1ccccc1)NC(=O)CC1CS(=O)(=O)c2ccc(CN)cc21 (stereo partly drawn): 8.00

Could you now consider this next molecule?
What value of pIC50 has been recorded for this entry: CC(C)CNC(=O)C[C@H](O)[C@H](CC1CCCCC1)NC(=O)[C@H](Cc1cnc[nH]1)NC(=O)[C@H](Cc1ccccc1)NC(=O)CC1CS(=O)(=O)c2cc(CN)ccc21 (stereo partly drawn) [Example E60, bis(trifluoroacetate) sesquihydrate]
7.40
